Data origin: patent US20160244525A1

- System Tested: FGFR2-IIIb (human) (UniProt P21802)
- Sequence (P21802 other isoform, or with tags, fused parts or gaps limits assumed): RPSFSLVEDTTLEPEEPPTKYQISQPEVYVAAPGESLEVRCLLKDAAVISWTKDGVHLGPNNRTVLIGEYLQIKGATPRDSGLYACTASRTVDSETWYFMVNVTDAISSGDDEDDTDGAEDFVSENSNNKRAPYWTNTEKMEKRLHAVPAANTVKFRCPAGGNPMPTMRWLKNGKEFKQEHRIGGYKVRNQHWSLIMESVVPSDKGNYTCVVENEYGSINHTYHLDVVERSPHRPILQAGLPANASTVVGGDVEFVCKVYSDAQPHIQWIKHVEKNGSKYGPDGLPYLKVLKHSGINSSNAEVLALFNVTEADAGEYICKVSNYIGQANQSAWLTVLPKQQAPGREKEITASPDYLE
- Run Description: SPR, IgG
Endpoint Label: Kd
# number then unit; no other words

• 2B.1.3.4 (antibody, human IgG1, kappa, V domains shown) VH: EVQLVESGGGLVQPGGSLRLSCAASGFTFTSTGISWVRQAPGKGLEWVGRTHLGDGSTNYADSVKGRFTISADTSKNTAYLQMNSLRAEDTAVYYCARTYGIYDIYGGYTEYVMDYWGQGTLVTVSS VL: DIQMTQSPSSLSASVGDRVTITCRASQDVDTSLAWYKQKPGKAPKLLIYSASFLYSGVPSRFSGSGSGTDFTLTISSLQPEDFATYYCQQSTGHPQTFGQGTKVEIKR = 5.8 nM
• 2B.1.3.12 (antibody, human IgG1, kappa, V domains shown) VH: EVQLVESGGGLVQPGGSLRLSCAASGFPFTSTGISWVRQAPGKGLEWVGRTHLGDGSTNYADSVKGRFTISADTSKNTAYLQMNSLRAEDTAVYYCARTYGIYDTYDMYTEYVMDYWGQGTLVTVSS VL: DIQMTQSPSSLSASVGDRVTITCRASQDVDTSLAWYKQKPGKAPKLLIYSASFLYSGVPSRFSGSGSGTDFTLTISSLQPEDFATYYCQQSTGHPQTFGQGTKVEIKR = 3 nM
• 2B.1.3.10 (antibody, human IgG1, kappa, V domains shown) VH: EVQLVESGGGLVQPGGSLRLSCAASGFPFTSQGISWVRQAPGKGLEWVGRTHLGDGSTNYADSVKGRFTISADTSKNTAYLQMNSLRAEDTAVYYCARTYGIYDTYDKYTEYVMDYWGQGTLVTVSS VL: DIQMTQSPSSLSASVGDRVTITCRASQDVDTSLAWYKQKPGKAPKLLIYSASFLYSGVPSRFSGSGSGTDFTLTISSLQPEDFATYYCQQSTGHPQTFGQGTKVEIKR = 2.9 nM
• 2B.1.3.2 (antibody, human IgG1, kappa, V domains shown) VH: EVQLVESGGGLVQPGGSLRLSCAASGFTFTSTGISWVRQAPGKGLEWVGRTHLGDGSTNYADSVKGRFTISADTSKNTAYLQMNSLRAEDTAVYYCARTYGIYDTYDNYTEYVMDYWGQGTLVTVSS VL: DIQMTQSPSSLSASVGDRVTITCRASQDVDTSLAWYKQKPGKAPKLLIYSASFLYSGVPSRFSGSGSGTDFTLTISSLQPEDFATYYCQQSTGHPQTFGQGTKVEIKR = 6.6 nM
• 2B.1.3.8 (antibody, human IgG1, kappa, V domains shown) VH: EVQLVESGGGLVQPGGSLRLSCAASGFPFTSLGISWVRQAPGKGLEWVGRTHLGDGSTNYADSVKGRFTISADTSKNTAYLQMNSLRAEDTAVYYCARTYGIYDIYEKYTEYVMDYWGQGTLVTVSS VL: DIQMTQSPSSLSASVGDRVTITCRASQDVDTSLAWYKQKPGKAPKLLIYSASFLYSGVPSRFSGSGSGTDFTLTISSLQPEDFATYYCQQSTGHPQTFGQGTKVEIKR = 1.4 nM

// next item, Kd requested
For the binder 2B.1.3.6 (antibody, human IgG1, kappa, V domains shown) VH: EVQLVESGGGLVQPGGSLRLSCAASGFTFTSTGISWVRQAPGKGLEWVGRTHLGDGSTNYADSVKGRFTISADTSKNTAYLQMNSLRAEDTAVYYCARTYGIYDTYDEYTEYVMDYWGQGTLVTVSS VL: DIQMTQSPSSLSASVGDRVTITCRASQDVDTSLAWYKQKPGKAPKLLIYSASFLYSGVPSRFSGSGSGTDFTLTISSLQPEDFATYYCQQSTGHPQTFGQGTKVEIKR , what Kd is on record?
5.9 nM
